- System: P388 mouse leukemia cells
- Measurement setup: 92 h
- Experimental: Each type of assay must be simplified and miniaturized to assess the activities of the library peptides in a 96-well format for the high-throughput screening. […] Mammalian cytotoxicity assay of bead-derived peptides . P388 cells were obtained from Institute of […] for 92 h, the numbers of viable cells were determined by […] at 37 °C. The absorbance of each well at 415 nm was measured using a Benchmark microplate reader (Bio-Rad). The cytotoxicities were evaluated as cell viability (%). […]
Where a SMILES comes first, the peptide text is derived from it. [ ]: non-standard residue; d: D form. The star is where a group is joined. NHCH2CH2OH = OCCN*; For = O=C*
Measured attribute: cell viability/% (%)
Provide only the numeric value, understood in %.

Exercise: Name the reported cell viability/% value associated with the molecule CC(C)C[C@@H](NC(=O)[C@H](Cc1c[nH]c2ccccc12)NC(=O)[C@@H](CC(C)C)NC(=O)[C@H](Cc1c[nH]c2ccccc12)NC(=O)[C@H](NC(=O)[C@H](Cc1c[nH]c2ccccc12)NC(=O)[C@@H](CC(C)C)NC(=O)[C@@H](NC(=O)[C@H](NC(=O)[C@H](C)NC(=O)[C@H](NC(=O)[C@H](C)NC(=O)CNC(=O)[C@@H](NC=O)C(C)C)C(C)C)C(C)C)C(C)C)C(C)C)C(=O)N[C@@H](Cc1c[nH]c2ccccc12)C(=O)NCCO [compound 8999] (For-VGA[dV]A[dV]V[dL]W[dV]W[dL]W[dL]W-NHCH2CH2OH)
Solution: 96.1
